- Tested on: NCI/ADR-RES ovarian
- ASSAY METHOD TEXT: NCI tumour cell line growth inhibition, 48 h
QUANTITY NAME: TGI

* O=[N+]([O-])c1ccc(Sc2c3ccccc3nc3ccccc23)cn1 | > 100 µM
* Cc1cn2c(/C=N/N=C(N)N)c(-c3ccc(Cl)c([N+](=O)[O-])c3)nc2s1 | > 100 µM
* Cc1nc2ccc(S(=O)(=O)Nc3nccs3)cc2c(=O)n1NS(=O)(=O)c1nccs1 | > 100 µM
* OC(C/C=N/N=C/CC(O)(C(F)(F)Cl)C(F)(F)Cl)(C(F)(F)Cl)C(F)(F)Cl | > 10 µM
